# experimental system: mouse EP3α (Mus musculus, UniProt P30557)
# Sequence (P30557 whole entry): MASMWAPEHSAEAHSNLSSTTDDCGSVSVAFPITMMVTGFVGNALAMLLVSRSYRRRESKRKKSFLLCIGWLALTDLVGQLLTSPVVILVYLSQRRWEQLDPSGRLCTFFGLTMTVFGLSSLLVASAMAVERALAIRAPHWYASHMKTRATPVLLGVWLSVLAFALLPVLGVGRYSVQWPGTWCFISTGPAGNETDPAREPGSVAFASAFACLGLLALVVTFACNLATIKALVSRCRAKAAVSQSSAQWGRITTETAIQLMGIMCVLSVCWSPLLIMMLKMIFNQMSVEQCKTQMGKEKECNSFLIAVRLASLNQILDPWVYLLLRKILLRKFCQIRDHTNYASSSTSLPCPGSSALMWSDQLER
measurement label: Ki (nM)

Recorded Ki, per entry:
CCCCC[C@@H](/C=C/[C@H]1[C@H](OC)CC(=O)[C@@H]1CCCCCCC(=O)O)OC [1(a)] = 6.3
COC(/C=C/[C@H]1[C@H](OC)CC(=O)[C@@H]1C/C=C\CCCC(=O)O)COc1ccccc1 (stereo partly drawn) [1(f)] = 2.9
CCCCC[C@@H](/C=C/[C@H]1[C@H](OCC)CC(=O)[C@@H]1C/C=C\CCCC(=O)O)OCC [Example 2] = 40
CCCCCC[C@@H](/C=C/[C@H]1[C@H](OC)CC(=O)[C@@H]1C/C=C\CCCC(=O)O)OC [1(e)] = 6.1

I. CCCCC(C)(C)[C@@H](/C=C/[C@H]1[C@H](OC)CC(=O)[C@@H]1C/C=C\CCCC(=O)O)OC [1(b)]
II. CCCCC[C@@H](/C=C/[C@@H]1[C@@H](C/C=C\CCCC(=O)O)[C@H](Cl)C[C@H]1OC)OC [1(h)]
Which value of Ki is numerically greater: that of I or that of II ? Reply with the label of the item you choose. I

----------
# experimental system: mouse EP2 (Mus musculus, UniProt Q62053)
# Sequence (Q62053 whole entry): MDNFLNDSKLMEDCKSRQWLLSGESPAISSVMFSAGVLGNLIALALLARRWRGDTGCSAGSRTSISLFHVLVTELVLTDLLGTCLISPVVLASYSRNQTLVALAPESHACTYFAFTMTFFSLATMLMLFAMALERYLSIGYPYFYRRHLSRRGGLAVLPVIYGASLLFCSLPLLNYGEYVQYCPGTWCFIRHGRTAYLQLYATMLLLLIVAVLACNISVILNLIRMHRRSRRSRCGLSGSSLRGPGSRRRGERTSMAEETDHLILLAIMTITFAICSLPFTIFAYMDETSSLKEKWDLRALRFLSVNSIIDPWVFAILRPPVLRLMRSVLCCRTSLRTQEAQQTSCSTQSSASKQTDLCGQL
measurement label: Ki (nM)

CCCCCC[C@@H](/C=C/[C@H]1[C@H](OC)CC(=O)[C@@H]1C/C=C\CCCC(=O)O)OC [1(e)] = 1300

a. CCCCC[C@@H](/C=C/[C@H]1[C@H](OC)CC(=O)[C@@H]1C/C=C\CCCC(=O)O)OC
b. CCCCC[C@@H](/C=C/[C@H]1[C@H](OCC)CC(=O)[C@@H]1C/C=C\CCCC(=O)O)OCC
Would you let me know which has the greater Ki value, a or b ? Give the label under which the chosen entry appears. a
(a: 2400 nM, b: 600 nM)
